The reported measurements were obtained from patent US6689792B2.

# study.system: serotonin transporter (Rattus norvegicus, UniProt P31652)
# Construct: frontal cortical membranes prepared from male S.D. rats; from tissue; host or cells: frontal cortical membranes of male Sprague-Dawley rats
# Sequence (P31652 whole entry): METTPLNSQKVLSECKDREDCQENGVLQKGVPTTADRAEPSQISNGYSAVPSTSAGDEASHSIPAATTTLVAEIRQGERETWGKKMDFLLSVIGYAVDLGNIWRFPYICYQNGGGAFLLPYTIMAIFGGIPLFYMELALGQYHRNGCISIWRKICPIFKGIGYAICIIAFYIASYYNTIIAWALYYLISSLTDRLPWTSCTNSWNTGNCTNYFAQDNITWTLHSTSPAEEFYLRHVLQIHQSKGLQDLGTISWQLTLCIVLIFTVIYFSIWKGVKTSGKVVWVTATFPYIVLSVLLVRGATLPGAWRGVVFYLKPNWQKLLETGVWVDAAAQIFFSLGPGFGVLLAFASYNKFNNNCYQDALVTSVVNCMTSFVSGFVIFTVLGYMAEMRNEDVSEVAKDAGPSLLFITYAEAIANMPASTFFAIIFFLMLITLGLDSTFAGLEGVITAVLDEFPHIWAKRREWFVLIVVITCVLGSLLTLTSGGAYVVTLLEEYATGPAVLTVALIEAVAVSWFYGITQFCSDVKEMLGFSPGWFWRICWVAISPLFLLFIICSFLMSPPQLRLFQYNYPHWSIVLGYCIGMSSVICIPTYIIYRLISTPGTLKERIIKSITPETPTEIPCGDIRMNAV
# assay.info: 3H-Paroxetine binding to rat frontal cortical membranes
# condition.set: read-out: SSRi % Inhibition (rat brain) at 0.1 μM
property.measured: inhibition at 0.1 µM (%)

COc1ccc(OCC(O)CN2CCN(c3cccc4[nH]ccc34)CC2)cc1 (centres unmarked) :: 17
O=[N+]([O-])c1ccc(OCC(O)CN2CCN(c3cccc4[nH]ccc34)CC2)cc1 (centres unmarked) :: 15
OC(COc1ccccc1-c1ccccc1)CN1CCN(c2cccc3[nH]ccc23)CC1 (centres unmarked) :: 0

a: OC(COc1cccc2[nH]ccc12)CN1CCN(c2cccc3[nH]ccc23)CC1 (centres unmarked)
b: OC(COc1ccc(Cl)cc1)CN1CCN(c2cccc3[nH]ccc23)CC1 (centres unmarked)
c: OC(COc1ccc(F)cc1)CN1CCN(c2cccc3[nH]ccc23)CC1 (centres unmarked)
d: NC(=O)c1cc2c(OCC(O)CN3CCN(c4cccc5[nH]ccc45)CC3)cccc2[nH]1 (centres unmarked)
Prompt line: List these items ordered by inhibition at 0.1 µM, big to small. Present the labels in the sequence the task asks for.
Response line: a, b, d, c
(a: 32%, b: 13%, d: 3%, c: 0%)

====

Reported melting point by item:
Counter-ions that a name gives are not always drawn.

OC(COc1cccc2[nH]ccc12)CN1CCN(c2cccc3[nH]ccc23)CC1 (stereo not drawn) (as salt: fumaric acid salt) :: 147 to 150 °C

Prompt line: Read the entry O=[N+]([O-])c1ccc(OCC(O)CN2CCN(c3cccc4[nH]ccc34)CC2)cc1 (stereo not drawn) (as salt: HCl) and write its reported melting point.
Response line: 248 °C

Prompt line: Read the entry OC(COc1ccccc1-c1ccccc1)CN1CCN(c2cccc3[nH]ccc23)CC1 (stereo not drawn) (as salt: fumaric acid salt) and write its reported melting point.
Response line: 214 to 215 °C

Prompt line: Read the entry OC(COc1ccc(Cl)cc1)CN1CCN(c2cccc3[nH]ccc23)CC1 (stereo not drawn) (as salt: fumaric acid salt) and write its reported melting point.
Response line: 224 to 225 °C

Prompt line: Read the entry OC(COc1ccc(F)cc1)CN1CCN(c2cccc3[nH]ccc23)CC1 (stereo not drawn) (as salt: fumaric acid salt) and write its reported melting point.
Response line: 234 to 235 °C

Prompt line: Read the entry OC(COc1ccccc1Cl)CN1CCN(c2cccc3[nH]ccc23)CC1 (stereo not drawn) (as salt: fumaric acid salt) and write its reported melting point.
Response line: 207 °C

====

# study.system: human dopamine D2 receptor (Homo sapiens, UniProt P14416)
# Sequence (P14416 whole entry): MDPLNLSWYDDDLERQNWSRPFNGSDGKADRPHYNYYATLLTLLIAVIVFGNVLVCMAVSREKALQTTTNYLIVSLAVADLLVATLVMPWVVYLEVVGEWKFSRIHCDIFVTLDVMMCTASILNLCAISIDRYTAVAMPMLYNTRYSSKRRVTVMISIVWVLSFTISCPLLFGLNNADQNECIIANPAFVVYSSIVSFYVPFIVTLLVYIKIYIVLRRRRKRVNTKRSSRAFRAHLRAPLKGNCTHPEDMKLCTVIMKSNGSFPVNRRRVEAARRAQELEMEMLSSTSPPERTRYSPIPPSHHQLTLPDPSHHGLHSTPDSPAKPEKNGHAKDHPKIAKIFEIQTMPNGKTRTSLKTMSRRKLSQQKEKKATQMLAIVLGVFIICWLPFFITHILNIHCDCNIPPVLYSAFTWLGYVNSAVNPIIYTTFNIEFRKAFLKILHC
# assay.info: [3H]-Spiperone displacement binding in CHO cells transfected with human dopamine D2 receptor
# condition.set: [3H]-Spiperone 0.5 nM, CHO cell membranes
property.measured: Ki (nM)

OC(COc1ccccc1Cl)CN1CCN(c2cccc3[nH]ccc23)CC1 (stereo not drawn) :: 31.9

A: OC(COc1ccc(Cl)cc1)CN1CCN(c2cccc3[nH]ccc23)CC1 (stereo not drawn)
B: OC(COc1ccc(F)cc1)CN1CCN(c2cccc3[nH]ccc23)CC1 (stereo not drawn)
Prompt line: Compare the recorded Ki of A and B ; state which is larger. When you have decided, please share the label of that item.
Response line: A
(A: 33.5 nM, B: 10.4 nM)

====

# study.system: human 5HT1A receptor (Homo sapiens)
# Sequence (P08908 whole entry): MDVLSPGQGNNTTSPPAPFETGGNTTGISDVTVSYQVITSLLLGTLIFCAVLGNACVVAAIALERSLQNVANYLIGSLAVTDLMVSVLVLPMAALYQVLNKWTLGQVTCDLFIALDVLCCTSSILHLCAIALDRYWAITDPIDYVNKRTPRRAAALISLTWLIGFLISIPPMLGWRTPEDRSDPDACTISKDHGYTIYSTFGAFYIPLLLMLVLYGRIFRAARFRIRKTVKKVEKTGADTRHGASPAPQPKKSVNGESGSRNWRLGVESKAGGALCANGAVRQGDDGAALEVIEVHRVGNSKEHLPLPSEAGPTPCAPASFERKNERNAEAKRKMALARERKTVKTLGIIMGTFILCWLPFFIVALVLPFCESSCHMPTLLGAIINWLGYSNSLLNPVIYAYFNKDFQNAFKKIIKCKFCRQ
# assay.info: [3H] 8-OH-DPAT displacement binding in CHO cells transfected with human 5HT1A receptor
# condition.set: [3H] 8-OH-DPAT 1.5 nM
pKi: −log10 of the molar value.
property.measured: pKi

Consider the worked cases shown below.
OC(COc1ccccc1Cl)CN1CCN(c2cccc3[nH]ccc23)CC1 (centres unmarked) [Example 5] :: 7.92
O=[N+]([O-])c1ccc(OCC(O)CN2CCN(c3cccc4[nH]ccc34)CC2)cc1 (centres unmarked) [Example 4] :: 8.06

P: OC(COc1cccc2[nH]ccc12)CN1CCN(c2cccc3[nH]ccc23)CC1 (centres unmarked) [Example 1]
Q: OC(COc1ccc(F)cc1)CN1CCN(c2cccc3[nH]ccc23)CC1 (centres unmarked) [Example 6]
Prompt line: Between P and Q , which one has the lower reported pKi value? When you have decided, please share the label of that item.
Response line: Q
(Q: 7.98, P: 8.22)

====

# study.system: human 5HT1A receptor (Homo sapiens)
# assay.info: [3H] 8-OH-DPAT displacement binding in CHO cells transfected with human 5HT1A receptor
# condition.set: [3H] 8-OH-DPAT 1.5 nM
property.measured: Ki (nM)

Consider the worked cases shown below.
NC(=O)c1cc2c(OCC(O)CN3CCN(c4cccc5[nH]ccc45)CC3)cccc2[nH]1 (stereo not shown) :: 7.2
COc1ccc(OCC(O)CN2CCN(c3cccc4[nH]ccc34)CC2)cc1 (stereo not shown) :: 1.8

I: OC(COc1ccccc1-c1ccccc1)CN1CCN(c2cccc3[nH]ccc23)CC1 (stereo not shown)
II: OC(COc1ccc(Cl)cc1)CN1CCN(c2cccc3[nH]ccc23)CC1 (stereo not shown)
Prompt line: Between I and II , which one has the lower reported Ki value? When you have decided, please share the label of that item.
Response line: I
